- Test system: 786-0 renal
- method: NCI-60 one-dose screen, 48 h (100 = growth as untreated, 0 = no growth, -100 = all killed)
- condition_context: 10 µM unless noted
The panel holds about 83,000 compounds, 20% with a hit somewhere; the sample as a whole holds those more often.
Items are presented alongside their recorded growth.
Supply the numeric figure in %, leaving out any unit text.

For orientation, consider the following solved cases.
COc1ccc(NC(=O)c2ccc(C(=O)Nc3ccc(OC)cc3OC)cc2)c(OC)c1 :: 51.2
CCOC(=O)c1c(NC(=O)c2ccc(OC)cc2)sc2c(CN(C)C)c(O)ccc12 :: 63.4
O=C(O)c1cn(C2CC2)c2cc(N3CCN(C(=O)N/N=C/c4ccccc4)CC3)c(F)cc2c1=O :: 93.6
Cn1c(=O)c2c(nc(NC3=NS(=O)(=O)c4ccccc43)n2Cc2ccccc2)n(C)c1=O :: 101
NC(CSC(c1ccccc1)(c1ccccc1)c1ccc2c(c1)OCO2)C(=O)O (centres undefined) :: 51.1

Asked: Lookup: growth / 786-0 renal / CCN1C(=O)N(CC)C2C1NN=c1s/c(=C\c3ccccc3Br)c(=O)n12 (centres undefined)
Given back: 17.4

Asked: Would you kindly repeat that for CCc1cccc(Sc2cc(C(=O)N3Cc4ccc(OCCN(C)C)cc4C3)ccc2O)c1 ?
Given back: 70.6

Asked: Would you kindly repeat that for COc1cc(C#Cc2ccc(=O)oc2C#Cc2ccccc2)cc(OC)c1OC ?
Given back: 83

Asked: Would you kindly repeat that for COc1cc(/C=C2\CN(S(=O)(=O)c3ccc(C)cc3)C/C(=C\c3cc(CN4CCCCC4)c(O)c(OC)c3)C2=O)cc(CN2CCCCC2)c1O ?
Given back: -65.4

Source of measurements: PubChem BioAssay (NCI)
